# System: SN12C
# runDescription: NCI tumour cell line growth inhibition, 48 h
The source made the active and inactive calls. Cut-off read from the data, not from the text of the source: active = GI50 up to about 1.1 µM and inactive = higher. Non-standard residues stand in square brackets, D forms with d. Residues, ends and D or L forms follow the SMILES beside them. Ava = NCCCCC(=O)O; Mpa = O=C(O)CCS
Quick list: GI50 per entry.

Worked examples follow.
COC(=O)C1=C(c2cc(OC)c(OC)c(OC)c2)O[C@H](c2ccc3c(c2)OCO3)[C@H]1COC(C)=O
24.7 µM (inactive)
O=C(NC(=O)c1c(Cl)nc2sccn12)Nc1ccc(Cl)cc1
86.5 µM (inactive)
Cc1ncc([N+](=O)[O-])n1CCNC(=O)CCCn1ccnc1[N+](=O)[O-]
> 100 µM (inactive)

For record [O-]c1c2cc(-[n+]3c(-c4ccccc4)cc(-c4ccccc4)cc3-c3ccccc3)cc1COCCOCCOCCOCCOC2 the listed GI50 is 38.8 µM (inactive)

GET /value?item= N#Cc1c(=O)c2cccnc2n2c1[nH]c1ccccc12 &field=GI50 returns > 100 µM (inactive)

Reported GI50 ( CC1(C)CC[C@]2(C(=O)O)CCC3(C)C(=CCC4[C@@]5(C)CC[C@H](OC6OCC(O)C(O)C6OC6OC(CO)C(O)C(O)C6O)C(C)(C)C5CC[C@]43C)C2C1 (some centres undefined) ) = 1.89 µM (inactive)

Entry O=S(O)CCCSSCCCCSSCCCS(=O)O — recorded GI50 = > 100 µM (inactive)

Looking up NCCSCC(N)C(=O)O (centres undefined) , I see its GI50 listed as > 497 µM (inactive)

Please fill in: GI50 reported for C/C=C/C(C/C=C(\C)CO[Si](C)(C)C(C)(C)C)O[Si](C)(C)C(C)(C)C (centres undefined) = > 100 µM (inactive)

So, CC(NC(=O)CCS)C(=O)NC(C)C(=O)NC(Cc1c[nH]c2ccccc12)C(=O)NC(Cc1c[nH]cn1)C(=O)NC(CO)C(=O)NC(Cc1c[nH]c2ccccc12)C(=O)NCCCCC(=O)NC(C)C(=O)NC(CCC(N)=O)C(=O)NC(CCCCN)C(=O)NC(C)C(=O)NC(CCCNC(=N)N)C(=O)NC(CCCCN)C(N)=O (centres undefined) ([Mpa]AAWHSW[Ava]AQKARK-NH2; configuration not given here) ? Its GI50 was > 100 µM (inactive)

GI50 measured on CCOS(=O)(=O)c1ccc(-c2c3nc(c(-c4ccc(S(=O)(=O)OCC)cc4)c4ccc([nH]4)c(-c4ccc(S(=O)(=O)OCC)cc4)c4nc(c(-c5ccc(S(=O)(=O)OCC)cc5)c5ccc2[nH]5)C=C4)C=C3)cc1 = > 31.6 µM (inactive)

Record Nc1ncnc2c1ncn2-c1ccc([N+](=O)[O-])cn1 . Reported GI50: > 100 µM (inactive)

Entry O=C(CCc1nnc2s/c(=C\c3ccc(Cl)cc3Cl)c(=O)n12)Nc1cc(Cl)c(Cl)cc1Cl ; GI50 = > 10 µM (inactive)

Form: compound = COc1cc(C2C(C(=O)O)=C(CO)Oc3cc4c(cc32)OCO4)cc(OC)c1O (centres undefined) ; GI50 = > 100 µM (inactive)
